The measurements presented in this section are drawn from patent US6020366A.

# ASSAY_TARGET: MMP-13 (Collagenase 3) (Homo sapiens)
# TEST_DETAILS: inhibition of MMP-13 hydrolysis of thiopeptolide substrate
# Format: biochemical
# CONDITION_SUMMARY: thiopeptolide substrate, pH 6.0, 22° C.; read-out: (IC50) MMP-13
pIC50: −log10 of the molar value.
MEASURE_NAME: pIC50

Some entries whose results are on file:
[[record]]
compound = "O=C(CC(NC(=O)c1ccc(Cl)c(Cl)c1)C(=O)O)c1ccc2oc3ccccc3c2c1 (centres unmarked)"
observed_value = 4.42

[[record]]
compound = "CCCCc1ccc(C(=O)NC(CC(=O)c2ccc3oc4ccccc4c3c2)C(=O)O)cc1 (centres unmarked)"
observed_value = 4.31

[[record]]
compound = "O=C(CC(NC(=O)C1CCCCC1)C(=O)O)c1ccc2oc3ccccc3c2c1 (centres unmarked)"
observed_value = 5.04

[[record]]
compound = "O=C(CC(NC(=O)c1ccc(C(F)(F)F)cc1)C(=O)O)c1ccc2oc3ccccc3c2c1 (centres unmarked)"
observed_value = 4.70


I = O=C(CC(NC(=O)c1sccc1Cl)C(=O)O)c1ccc2oc3ccccc3c2c1 (centres unmarked)
II = O=C(CC(NC(=O)C(c1ccccc1)c1ccccc1)C(=O)O)c1ccc2oc3ccccc3c2c1 (centres unmarked)
III = O=C(CC(NC(=O)C1CC1)C(=O)O)c1ccc2oc3ccccc3c2c1 (centres unmarked)
IV = O=C(CC(NC(=O)c1ccncc1)C(=O)O)c1ccc2oc3ccccc3c2c1 (centres unmarked)
-- ask Sort (4 compounds) by pIC50: min first. Would you mind listing the labels in the order requested?
-- reply IV, I, III, II
(IV: 4.39, I: 4.89, III: 5.25, II: 5.96)

----------
# ASSAY_TARGET: UniProt:P08253
# Sequence (P08253 110-660): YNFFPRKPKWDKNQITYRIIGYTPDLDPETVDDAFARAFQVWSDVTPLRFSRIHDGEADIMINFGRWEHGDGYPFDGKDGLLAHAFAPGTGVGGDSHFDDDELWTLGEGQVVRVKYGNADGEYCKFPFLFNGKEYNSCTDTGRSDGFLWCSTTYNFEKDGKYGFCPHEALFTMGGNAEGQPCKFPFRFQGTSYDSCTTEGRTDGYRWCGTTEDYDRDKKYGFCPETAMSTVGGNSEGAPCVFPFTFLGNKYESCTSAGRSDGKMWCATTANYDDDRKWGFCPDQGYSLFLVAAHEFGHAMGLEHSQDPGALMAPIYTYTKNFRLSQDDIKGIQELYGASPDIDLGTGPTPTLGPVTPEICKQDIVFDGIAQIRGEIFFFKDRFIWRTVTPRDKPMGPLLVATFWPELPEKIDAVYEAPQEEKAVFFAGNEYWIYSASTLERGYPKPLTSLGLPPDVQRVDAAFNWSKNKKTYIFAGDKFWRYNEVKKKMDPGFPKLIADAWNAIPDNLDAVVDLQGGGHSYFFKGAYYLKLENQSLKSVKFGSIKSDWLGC
# TEST_DETAILS: inhibition of MMP-2 hydrolysis of thiopeptolide substrate
# Format: biochemical
# CONDITION_SUMMARY: thiopeptolide substrate, pH 6.0, 22° C.; read-out: (IC50) MMP-2
pIC50: −log10 of the molar value.
MEASURE_NAME: pIC50

P = O=C(CC(NC(=O)c1ccc(Cl)cc1)C(=O)O)c1ccc2oc3ccccc3c2c1 (stereo not shown)
Q = O=C(CC(NC(=O)c1ccc(C(F)(F)F)cc1)C(=O)O)c1ccc2oc3ccccc3c2c1 (stereo not shown)
R = CCCCCCC(=O)NC(CC(=O)c1ccc2oc3ccccc3c2c1)C(=O)O (stereo not shown)
S = CCCCOc1ccc(C(=O)NC(CC(=O)c2ccc3oc4ccccc4c3c2)C(=O)O)cc1 (stereo not shown)
-- ask Please give the order of these compounds when sorted by pIC50, largest value leading. Would you mind listing the labels in the order requested?
-- reply R, P, Q, S

----------
# ASSAY_TARGET: UniProt P14780
# Sequence (P14780 94-707): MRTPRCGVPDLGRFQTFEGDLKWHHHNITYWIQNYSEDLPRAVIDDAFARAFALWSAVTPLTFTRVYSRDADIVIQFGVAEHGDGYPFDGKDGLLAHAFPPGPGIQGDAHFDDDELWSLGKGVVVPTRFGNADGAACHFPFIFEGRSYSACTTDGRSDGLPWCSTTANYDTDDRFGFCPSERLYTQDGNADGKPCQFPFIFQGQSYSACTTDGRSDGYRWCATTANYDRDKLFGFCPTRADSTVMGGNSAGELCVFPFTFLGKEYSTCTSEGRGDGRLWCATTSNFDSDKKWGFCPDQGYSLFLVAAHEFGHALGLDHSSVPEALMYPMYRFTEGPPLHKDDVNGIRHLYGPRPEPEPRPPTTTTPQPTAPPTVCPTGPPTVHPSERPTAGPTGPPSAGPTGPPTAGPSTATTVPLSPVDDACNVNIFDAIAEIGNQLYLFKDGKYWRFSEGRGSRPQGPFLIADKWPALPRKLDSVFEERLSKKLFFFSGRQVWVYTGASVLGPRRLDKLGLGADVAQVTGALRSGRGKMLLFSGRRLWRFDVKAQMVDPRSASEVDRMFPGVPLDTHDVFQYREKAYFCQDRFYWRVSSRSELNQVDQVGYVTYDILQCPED
pIC50: −log10 of the molar value.
MEASURE_NAME: pIC50

-- ask Requested field: pIC50. Item: `O=C(C[C@H](NC(=O)C(F)(F)F)C(=O)O)c1ccc2oc3ccccc3c2c1`
-- reply < 4.00

----------
# ASSAY_TARGET: MMP-2 (Gelatinase A) (Homo sapiens)
# TEST_DETAILS: inhibition of MMP-2 hydrolysis of thiopeptolide substrate
# Assay type: biochemical
MEASURE_NAME: IC50 (µM)
Response body: numeric value in µM, unit text excluded.

-- ask Requested field: IC50. Item: O=C(CC(NC(=O)C(F)(F)C(F)(F)C(F)(F)C(F)(F)C(F)(F)C(F)(F)C(F)(F)F)C(=O)O)c1ccc2oc3ccccc3c2c1 (stereo not shown)
-- reply 4.6

----------
# ASSAY_TARGET: UniProtKB P45452
# TEST_DETAILS: inhibition of MMP-13 hydrolysis of thiopeptolide substrate
# Format: biochemical
# CONDITION_SUMMARY: thiopeptolide substrate, pH 6.0, 22° C.; read-out: (IC50) MMP-13
pIC50: −log10 of the molar value.
MEASURE_NAME: pIC50

[[record]]
molecule = "O=C(CC(NC(=O)c1ccccn1)C(=O)O)c1ccc2oc3ccccc3c2c1 (centres unmarked) [Example 45]"
assay_target = "UniProtKB P45452"
measure_name = "pIC50"
observed_value = 4.82

[[record]]
molecule = "COc1ccc(CC(=O)NC(CC(=O)c2ccc3oc4ccccc4c3c2)C(=O)O)cc1OC (centres unmarked) [Example 21]"
assay_target = "UniProtKB P45452"
measure_name = "pIC50"
observed_value = 4.80

[[record]]
molecule = "Cc1nn(-c2ccccc2)nc1C(=O)NC(CC(=O)c1ccc2oc3ccccc3c2c1)C(=O)O (centres unmarked) [Example 55]"
assay_target = "UniProtKB P45452"
measure_name = "pIC50"
observed_value = 4.15

[[record]]
molecule = "O=C(COc1ccc(Cl)cc1)NC(CC(=O)c1ccc2oc3ccccc3c2c1)C(=O)O (centres unmarked) [Example 19]"
assay_target = "UniProtKB P45452"
measure_name = "pIC50"
observed_value = 4.34

[[record]]
molecule = "O=C(CC(NC(=O)c1ccc(Br)cc1)C(=O)O)c1ccc2oc3ccccc3c2c1 (centres unmarked) [Example 42]"
assay_target = "UniProtKB P45452"
measure_name = "pIC50"
observed_value = 4.77

[[record]]
molecule = "CCCCOc1ccc(C(=O)NC(CC(=O)c2ccc3oc4ccccc4c3c2)C(=O)O)cc1 (centres unmarked) [Example 37]"
assay_target = "UniProtKB P45452"
measure_name = "pIC50"
observed_value = 4.24

[[record]]
molecule = "O=C(CC(NC(=O)c1ccc(F)cc1)C(=O)O)c1ccc2oc3ccccc3c2c1 (centres unmarked) [Example 43]"
assay_target = "UniProtKB P45452"
measure_name = "pIC50"
observed_value = 5.15

[[record]]
molecule = "O=C(COCc1ccccc1)NC(CC(=O)c1ccc2oc3ccccc3c2c1)C(=O)O (centres unmarked) [Example 32]"
assay_target = "UniProtKB P45452"
measure_name = "pIC50"
observed_value = 5.46

[[record]]
molecule = "CCCCCCC(=O)NC(CC(=O)c1ccc2oc3ccccc3c2c1)C(=O)O (centres unmarked) [Example 33]"
assay_target = "UniProtKB P45452"
measure_name = "pIC50"
observed_value = 5.33

[[record]]
molecule = "O=C(O)[C@H](CC(=NO)c1ccc2oc3ccccc3c2c1)NC(=O)C(F)(F)F [Example 16]"
assay_target = "UniProtKB P45452"
measure_name = "pIC50"
observed_value = 5.62


1 = O=C(CC(NC(=O)c1cccs1)C(=O)O)c1ccc2oc3ccccc3c2c1 (centres unmarked) [Example 51]
2 = O=C(Cc1cccs1)NC(CC(=O)c1ccc2oc3ccccc3c2c1)C(=O)O (centres unmarked) [Example 52]
3 = O=C(CC(NC(=O)C1CCCC1)C(=O)O)c1ccc2oc3ccccc3c2c1 (centres unmarked) [Example 49]
4 = O=C(CC(NC(=O)c1ccc2c(c1)OCO2)C(=O)O)c1ccc2oc3ccccc3c2c1 (centres unmarked) [Example 53]
5 = CCC(C(=O)NC(CC(=O)c1ccc2oc3ccccc3c2c1)C(=O)O)c1ccccc1 (centres unmarked) [Example 54]
-- ask Sort (5 molecules) by pIC50: min first. Would you mind listing the labels in the order requested?
-- reply 2, 1, 4, 3, 5
(2: 4.32, 1: 4.80, 4: 5.04, 3: 5.36, 5: 5.82)

1 = Cc1ccc(C(=O)NC(CC(=O)c2ccc3oc4ccccc4c3c2)C(=O)O)cc1 (centres unmarked) [Example 29]
2 = O=C(C[C@H](NC(=O)C(F)(F)F)C(=O)O)c1ccc2oc3ccccc3c2c1 [Example 1]
-- ask API: POST /compare with 1 and 2 ; response names the item with higher pIC50. Refer to your chosen entry by its label in the reply.
-- reply 2

----------
# ASSAY_TARGET: UniProt P08254
# Sequence (P08254 100-477): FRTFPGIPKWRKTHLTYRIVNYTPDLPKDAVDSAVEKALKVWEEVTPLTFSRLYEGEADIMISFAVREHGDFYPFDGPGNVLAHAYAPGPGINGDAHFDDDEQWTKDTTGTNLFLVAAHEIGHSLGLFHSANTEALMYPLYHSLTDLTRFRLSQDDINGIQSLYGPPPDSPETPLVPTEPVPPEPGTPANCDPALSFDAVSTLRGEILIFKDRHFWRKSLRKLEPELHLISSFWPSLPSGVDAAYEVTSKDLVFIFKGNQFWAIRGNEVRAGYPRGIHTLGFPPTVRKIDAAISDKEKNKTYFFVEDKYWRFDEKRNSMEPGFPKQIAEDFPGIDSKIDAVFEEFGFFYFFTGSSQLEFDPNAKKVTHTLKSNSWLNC
# TEST_DETAILS: inhibition of MMP-3 hydrolysis of thiopeptolide substrate
# Assay type: biochemical
# CONDITION_SUMMARY: thiopeptolide substrate, pH 6.0, 22° C.; read-out: (IC50) MMP-3
MEASURE_NAME: IC50 (µM)

[[record]]
compound = "O=C(CC(NC(=O)c1ccc(Cl)c(Cl)c1)C(=O)O)c1ccc2oc3ccccc3c2c1 (stereo not shown) [Example 20]"
value_units = "µM"
observed_value = 7


a = O=C(Cc1cccs1)NC(CC(=O)c1ccc2oc3ccccc3c2c1)C(=O)O (stereo not shown) [Example 52]
b = O=C(COc1ccc(Cl)cc1)NC(CC(=O)c1ccc2oc3ccccc3c2c1)C(=O)O (stereo not shown) [Example 19]
c = COc1ccc(C(=O)NC(CC(=O)c2ccc3oc4ccccc4c3c2)C(=O)O)cc1 (stereo not shown) [Example 46]
-- ask Sort (3 compounds) by IC50: min first. Would you mind listing the labels in the order requested?
-- reply c, b, a
